Test system: Triticum aestivum
experiment_summary: Phytotoxicity against Triticum aestivum (wheat) under greenhouse conditions at 2.5 g/a at 1.5-leaf stage measured after 3 weeks by pot test
Assay type: organism-based
test_context: in vivo, 504 h
property_label: Activity

Below are worked cases with known answers.
Item under review: CC(Oc1ccc(Oc2ncc(Cl)cc2Cl)cc1)C(=O)NCC(N)=O (stereo unspecified) . Reported Activity? Toxic

Param item: CC(Oc1ccc(Oc2ccc(C(F)(F)F)cn2)cc1)C(=O)O (stereo unspecified) [FLUAZIFOP] Toxic

Param item: CC(Oc1ccc(Oc2ccc(Cl)cc2Cl)cc1)C(=O)O (stereo unspecified) [DICLOFOP] Non-toxic

Param item: CONC(=O)C(C)Oc1ccc(Oc2ncc(Cl)cc2Cl)cc1 (stereo unspecified) Toxic

Param item: CNC(=O)CNC(=O)C(C)Oc1ccc(Oc2ncc(Cl)cc2Cl)cc1 (stereo unspecified) Non-toxic

Switching to the query record.
Item under review: CC(Oc1ccc(Oc2ncc(Cl)cc2Cl)cc1)C(=O)NN (stereo unspecified) . Reported Activity? Non-toxic

Values were extracted from ChEMBL document CHEMBL3045519.
